test system: canine-colonoid-derived monolayers; test: Bidirectional transport (Papp) across canine-colonoid-derived monolayers; format: in vitro ADME, dog; conditions: 1 mg/mL (3380 μM), Dog colonoid, AP→BL pH 6.8/7.4, individual wells; read-out: Papp × 10^−6
assay endpoint: Papp A→B
The reply must contain the numeric value and, after it, the unit.

Inquiry: Please give the measured Papp A→B for this compound: CC(C)NCC(O)COc1cccc2ccccc12 (stereo not shown) [Propranolol]
Reply text: 11.1 ×10⁻⁶ cm/s

* * *

test system: canine-colonoid-derived monolayers; test: Bidirectional transport (Papp) across canine-colonoid-derived monolayers; type: in vitro ADME, dog; settings: 0.04 mg/mL (58.4 μM), Dog colonoid, AP→BL pH 7.4/7.4, individual wells; read-out: Papp × 10^−6
assay endpoint: Papp A→B (×10⁻⁶ cm/s)
The figure you give is taken to be in ×10⁻⁶ cm/s; do not add the unit.

Inquiry: Sample COCCc1ccc(OCC(O)CNC(C)C)cc1 (stereo not shown) — what was its Papp A→B?
Reply text: 13.5

* * *

test system: canine-colonoid-derived monolayers; experiment: Bidirectional transport (Papp) across canine-colonoid-derived monolayers; type: in vitro ADME, dog; settings: 0.4 mg/mL (584.1 μM) ± FITC-dextran 200 µg/mL, Dog colonoid, AP→BL pH 7.4/7.4, individual wells; read-out: Papp × 10^−6
assay endpoint: Papp A→B
Give your result as the value with the unit written after it.

Inquiry: I have this compound here, COCCc1ccc(OCC(O)CNC(C)C)cc1 (stereo not shown) , and I need its recorded Papp A→B.
Reply text: 11.2 ×10⁻⁶ cm/s

* * *

assay: Bidirectional transport (Papp) across Caco-2 cell monolayers; type: in vitro ADME, human; settings: human, Caco-2, pH 6.8, 0.4 mg/mL (584.1 μM), Human Caco-2, AP→BL pH 6.8/7.4, N = 2; read-out: Papp × 10^−6 Avg
assay endpoint: Papp A→B at 120 min, 0.4 mg/mL (×10⁻⁶ cm/s)
Lab book: enter the figure in ×10⁻⁶ cm/s, no units written.

Inquiry: For the compound COCCc1ccc(OCC(O)CNC(C)C)cc1 (stereo not shown) , what Papp A→B at 120 min, 0.4 mg/mL is on record?
Reply text: 17.9

* * *

assay: Bidirectional transport (Papp) across canine-colonoid-derived monolayers; assay type: in vitro ADME, dog; conditions: dog, pH 7.4, 0.04 mg/mL (58.4 μM), Dog colonoid, BL→AP pH 7.4/7.4, N = 2; read-out: Papp × 10^−6 Avg
assay endpoint: Papp B→A at 120 min, 0.04 mg/mL

Inquiry: Fill in: Papp B→A at 120 min, 0.04 mg/mL of COCCc1ccc(OCC(O)CNC(C)C)cc1 (stereo not shown) is ___
Reply text: 119 nm/s

* * *

tested on: canine-colonoid-derived monolayers; experiment: Bidirectional transport (Papp) across canine-colonoid-derived monolayers; type: in vitro ADME, dog; conditions: 0.04 mg/mL (58.4 μM), Dog colonoid, AP→BL pH 6.8/7.4, individual wells; read-out: Papp × 10^−6
assay endpoint: Papp A→B (×10⁻⁶ cm/s)
Respond numerically; units are ×10⁻⁶ cm/s and should not be typed.

Inquiry: State its Papp A→B on canine-colonoid-derived monolayers: COCCc1ccc(OCC(O)CNC(C)C)cc1 (stereo not shown) [Metoprolol]
Reply text: 18.5

* * *

assay: Bidirectional transport (Papp) across Caco-2 cell monolayers; assay type: in vitro ADME, human; conditions: human, Caco-2, pH 7.4, 0.04 mg/mL (58.4 μM), Human Caco-2, BL→AP pH 7.4/7.4, individual wells; read-out: Papp × 10^−6
assay endpoint: Papp B→A at 120 min, 0.04 mg/mL (×10⁻⁶ cm/s)
// note: answer is a bare numeric in ×10⁻⁶ cm/s

Inquiry: Need Papp B→A at 120 min, 0.04 mg/mL of COCCc1ccc(OCC(O)CNC(C)C)cc1 (stereo not shown) , thanks.
Reply text: 16.3

* * *

assay: Bidirectional transport (Papp) across canine-colonoid-derived monolayers; type: in vitro ADME, dog; conditions: dog, pH 7.4, 1 mg/mL (3380 μM), Dog colonoid, AP→BL pH 7.4/7.4, N = 2; read-out: Papp × 10^−6 Avg
assay endpoint: Papp A→B at 120 min, 1 mg/mL (×10⁻⁶ cm/s)
Response body: numeric value in ×10⁻⁶ cm/s, unit text excluded.

Inquiry: Could you share which Papp A→B at 120 min, 1 mg/mL value was measured for CC(C)NCC(O)COc1cccc2ccccc12 (stereo not shown) [Propranolol] ?
Reply text: 12

All values here come from paper PMC10177590.
